Assayed System: acetylcholine receptor
Protocol Notes: SPR, receptor immobilized, peptide 10 uM
Recorded Endpoint: Binding affinity (RU)

Worked cases, answers included:
- Binder: "KKKIRR [6mer-2-829]"
  Unit Abbreviation: "RU"
  Binding affinity (RU): 22
- Binder: "RNKVR [5mer-1054]"
  Unit Abbreviation: "RU"
  Binding affinity (RU): 21

A: KRGISR [6mer-1-195]
B: KCMKR [5mer-1064]
(Q) # query: argmin of Binding affinity (RU) over A and B Field: selected label. Fill in the label of the entry you choose.
(A) B
(B: 20 RU, A: 122 RU)

P: KHTWR [5mer-749]
Q: KRLRRK [6mer-1-159]
(Q) # query: argmin of Binding affinity (RU) over P and Q Field: selected label. Fill in the label of the entry you choose.
(A) P

A: RPHVK [5mer-1063]
B: RRRIQK [6mer-1-175]
(Q) Pick one: A or B . Which has the bigger Binding affinity (RU) number? Field: selected label. Fill in the label of the entry you choose.
(A) B
